Ratio (pH 7.4/6.0) values by entry
Molecular target: CD46 on Colo205 cells (human) (UniProt P15529)
Experiment: FACS, Colo205 cells that express CD46; EC50 at pH 7.4 over EC50 at pH 6.0
Number only, no unit.

Please review the entries below; each comes with its answer.
INSERT INTO measurements (binder, measured_number) VALUES
  ('BAP133-2-03-03-SL (antibody, V domains shown) VH: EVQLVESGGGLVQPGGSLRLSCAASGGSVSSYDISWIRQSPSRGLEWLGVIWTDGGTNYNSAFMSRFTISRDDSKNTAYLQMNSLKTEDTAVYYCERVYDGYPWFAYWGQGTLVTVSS VL: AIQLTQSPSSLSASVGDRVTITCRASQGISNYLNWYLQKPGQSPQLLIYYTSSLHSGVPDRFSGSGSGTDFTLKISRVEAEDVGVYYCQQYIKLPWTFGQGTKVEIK', 4.4),
  ('BAP133-2-02-12 (antibody, V domains shown) VH: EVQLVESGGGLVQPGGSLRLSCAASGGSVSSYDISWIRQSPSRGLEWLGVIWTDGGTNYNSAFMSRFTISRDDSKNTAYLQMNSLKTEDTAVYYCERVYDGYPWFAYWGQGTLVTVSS VL: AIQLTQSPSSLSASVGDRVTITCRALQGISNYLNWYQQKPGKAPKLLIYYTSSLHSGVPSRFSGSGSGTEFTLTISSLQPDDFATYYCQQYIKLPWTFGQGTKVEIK', 5.2);

Problem: // query Ratio (pH 7.4/6.0) value for entry BA-133-04-04 (antibody, V domains shown) VH: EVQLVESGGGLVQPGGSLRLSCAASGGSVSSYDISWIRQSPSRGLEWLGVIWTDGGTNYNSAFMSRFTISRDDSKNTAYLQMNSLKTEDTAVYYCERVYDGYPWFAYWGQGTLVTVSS VL: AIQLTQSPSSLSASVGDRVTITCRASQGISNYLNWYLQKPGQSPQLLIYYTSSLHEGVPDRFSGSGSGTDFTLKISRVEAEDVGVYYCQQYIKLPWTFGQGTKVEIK
Solution: 3.9
